# System: Danio rerio Tg(wt1b:EGFP) embryo, pronephros
# Assay Remarks: fraction of imaged embryos annotated as normal kidney; higher = less nephrotoxic; extreme values may be limits of the assay
# Experimental Parameters: 25 µM; exposure: 24-48 hpf
Where a name gives a salt, the structure may show the parent alone.
Measure Name: fraction of imaged embryos annotated as normal kidney
A bare number is all that is needed in reply.

Tell me measured fraction of imaged embryos annotated as normal kidney for CS(=O)(=O)Nc1ccc([N+](=O)[O-])cc1Oc1ccccc1 [Nimesulide] please.
0

Tell me measured fraction of imaged embryos annotated as normal kidney for Cc1cn[nH]c1 [Fomepizole] please.
0.917

Tell me measured fraction of imaged embryos annotated as normal kidney for CCN(CC)CCN[C@@H](C(=O)OCCC(C)C)c1ccccc1 [Camylofine chlorhydrate] please.
0.75

Tell me measured fraction of imaged embryos annotated as normal kidney for CN1CCc2cccc3c2[C@H]1Cc1ccc(O)c(O)c1-3 [R(-) Apomorphine hydrochloride hemihydrate] please.
0.833

Tell me measured fraction of imaged embryos annotated as normal kidney for CN(C(=O)CN(CCO)CC(=O)N(C)C(C)(C)Cc1ccccc1)C(C)(C)Cc1ccccc1 please.
0.727

Tell me measured fraction of imaged embryos annotated as normal kidney for CCc1ccc(CCOc2ccc(CC3SC(=O)NC3=O)cc2)nc1 (stereo not given) please.
0.75

---

# Tested on: Danio rerio Tg(wt1b:EGFP) embryo, pronephros
# Assay Remarks: glomerular width (mean of left and right), fold change vs DMSO control; higher = wider glomerulus
# Experimental Parameters: 25 µM; exposure: 24-48 hpf
Where a name gives a salt, the structure may show the parent alone.
In this section we review reported glomerular width values for a set of compounds.
A bare number is all that is needed in reply.

Reference set, count: 6
- Compound: "COc1ccc(CN2CCN(C(c3ccc(F)cc3)c3ccc(F)cc3)CC2)c(OC)c1OC [Lomerizine hydrochloride]"
  Observed Measurement: 0.975
- Compound: "CN(C)CCN(Cc1cccs1)c1ccccn1 [Methapyrilene hydrochloride]"
  Observed Measurement: 0.99
- Compound: "Nc1c2c(nc3ccccc13)CCCC2 [Tacrine hydrochloride]"
  Observed Measurement: 1.01
- Compound: "N#Cc1ccc(C(c2ccc(C#N)cc2)n2cncn2)cc1"
  Observed Measurement: 1.02
- Compound: "CN[C@@H]1[C@@H](O[C@H]2O[C@H](CO)[C@@H](N)[C@H](O)[C@H]2O)OC2C[C@@H](N)[C@@H](O[C@H]3[C@H](O)[C@@H](O)[C@H](N)C[C@@H]3N)OC2[C@@H]1O (stereo partly drawn)"
  Observed Measurement: 0.977
- Compound: "CC[N+](C)(CC)CCOC(=O)C1c2ccccc2Oc2ccccc21 [Methantheline bromide]"
  Observed Measurement: 0.996

# next compound below
State glomerular width (Danio rerio Tg(wt1b:EGFP) embryo, pronephros) of C[C@H](CCC(=O)O)[C@H]1CC[C@H]2[C@@H]3C(=O)C[C@@H]4CC(=O)CC[C@]4(C)[C@H]3CC(=O)[C@]12C [Dehydrocholic acid] .
0.978

---

# Tested on: Danio rerio Tg(wt1b:EGFP) embryo, pronephros
# Assay Remarks: pronephric angle neck segment to proximal convoluted tubule (mean of left and right), fold change vs DMSO control; higher = larger pronephric angle
# Experimental Parameters: 25 µM; exposure: 24-48 hpf
Counter-ions that a name gives are not always drawn.
Measure Name: pronephric angle neck segment

- Molecule: "COc1cccc2c1C(=O)c1c(O)c3c(c(O)c1C2=O)C[C@@](O)(C(=O)CO)C[C@@H]3O[C@H]1C[C@H](N)[C@H](O)[C@H](C)O1 [Doxorubicin hydrochloride]"
  pronephric angle neck segment: 0.978
- Molecule: "O=C(O)[C@H]1/C(=C/CO)O[C@@H]2CC(=O)N21 [Clavulanate potassium salt]"
  pronephric angle neck segment: 1
- Molecule: "CC(N)CCCC(C)(C)O (centres undefined) [Heptaminol hydrochloride]"
  pronephric angle neck segment: 0.971

# next molecule below
State pronephric angle neck segment (Danio rerio Tg(wt1b:EGFP) embryo, pronephros) of O=C1CCc2cc(OCCCCc3nnnn3C3CCCCC3)ccc2N1 .
0.994
